The entries below come with measured melting point values attached.

Before answering, review these 10 worked examples.
INSERT INTO results (compound, parameter_measured, result) VALUES
  ('COc1cc(C(=O)NS(=O)(=O)c2ccccc2Br)ccc1Cc1cccc2ccc(CCCCC(=O)N(C)C)cc12', 'melting point', '91 to 97 °C'),
  ('COc1ccc(C(=O)N2CCc3cc(OCc4ccccc4)c(OC)cc3C2)cc1', 'melting point', '126 to 127 °C'),
  ('CCOC(=O)c1ccn2c(C(=O)c3cccc(O)c3)c(-c3ccccc3)cc2c1', 'melting point', '193 to 195 °C'),
  ('CC(=O)CC(=O)NCCNC(=O)OCc1ccccc1', 'melting point', '116 to 118 °C'),
  ('CC1(C)OC(=S)Nc2ccc(-c3cncc(Br)c3)cc21', 'melting point', '252 to 253 °C'),
  ('CCOC(=O)c1cnc2c(-c3cccc(Cl)c3)cnn2c1', 'melting point', '136 °C'),
  ('COC(=O)c1ccc2c(c1)C1(O)C(=O)c3ccccc3C1(O)O2 (stereo unspecified)', 'melting point', '220 to 223 °C'),
  ('COc1cc2c(cc1OC)C(Oc1ccccc1C#N)CN(C)C2 (stereo unspecified)', 'melting point', '147 to 148 °C'),
  ('CC(C)CC(NC(=O)C(Cc1c[nH]cn1)NC(=O)C(CC(=O)c1ccccc1)Cc1cccc2ccccc12)C(O)C(=O)OC(C)C (stereo unspecified)', 'melting point', '108 to 118 °C'),
  ('CCCCCCCc1ccc(-c2ccc(N)cc2)cc1', 'melting point', '79 °C');

Q: Any idea what its melting point is? The compound is "CNC(=O)c1ccc(C=CC(=O)NCC(=O)N(C)c2ccc(C)c(CCl)c2C)cc1"
Ans: 232 °C

Q: "O=C(O)c1csnc1-c1ccc(C(F)(F)F)cc1" ?
Ans: 195 to 196 °C

Q: "CCCCCCc1nc2c(N)nc3ccccc3c2n1CCCCNS(C)(=O)=O" ?
Ans: 170 to 171 °C

Q: "CNCCSC1=Cc2ccccc2Sc2ccc(O)cc21" ?
Ans: 147 to 149 °C

Q: "Nc1sc(CC(=O)O)cc1C(=O)c1ccccc1Cl" ?
Ans: 172 to 182 °C

Q: "Cc1nc(N2C[C@H](C)N(Cc3ccc(F)cc3)C2=O)sc1C(N)=O" ?
Ans: 185 to 186 °C

Q: CCCC1=C(C(=O)OCC)C(c2cccc(Cl)c2Cl)c2c[nH]nc2N1 (stereo unspecified) ?
Ans: 220 °C

Q: "Oc1ccc(Oc2ccc(Oc3ccc(O)cc3)cc2)cc1" ?
Ans: 187 to 189 °C

Q: "Cc1cccc(N2CCN(c3ccc(Br)nn3)CC2)c1" ?
Ans: 146 °C

Q: "O=C(Nc1cc(Cl)ccc1O)Nc1ccccc1C(F)(F)F" ?
Ans: 183 to 184 °C

Q: "O=C1OCc2c1cc1ccc(Cl)cc1c2-c1ccc(Cl)cc1" ?
Ans: 205 to 207 °C

----------
PARAMETER MEASURED: melting point

Q: Any idea what its melting point is? The compound is OC(CNC(c1ccccc1)C(O)c1ccccc1)CNC(c1ccccc1)C(O)c1ccccc1 (stereo not given)
Ans: 155 to 175 °C

----------
PARAMETER MEASURED: melting point (°C)

INSERT INTO assay_data (compound, parameter_measured, measured_number) VALUES
  ('CC(CCc1ccc(F)cc1)(Cn1ccnc1)Sc1cc(Cl)ccc1Cl (centres undefined)', 'melting point', 148),
  ('COc1nc(OC)nc(-n2cnc(S(C)(=O)=O)n2)n1', 'melting point', 170);

1 = CCOC(=O)C1=C2NCCN2C(C)=C(C(C)=O)C1c1cccc([N+](=O)[O-])c1 (centres undefined)
2 = COC(=O)Cc1ccc(OCCNC(=O)C2Cc3ccccc3N2S(=O)(=O)c2ccc(-c3ccc(C)cc3)c(C(F)(F)F)c2)cc1 (centres undefined)
Q: Name the one with the greater melting point value, either 1 or 2 as given. Identify your pick by its label.
Ans: 1

----------
The entries below come with measured melting point values attached.

Before answering, review these 9 worked examples.
INSERT INTO results (compound, parameter_measured, result) VALUES
  ('COc1ccccc1OCC(O)CN1CCC(N2CCNC2=O)CC1 (stereo not given)', 'melting point', '138 °C'),
  ('COc1cc2c(cc1C(F)(F)F)N(C(=O)Nc1cc(Br)c(C)c(-c3cccnc3)c1)CC2', 'melting point', '216 to 218 °C'),
  ('O=S(=O)(c1ccc(O)cc1)N(CC(F)(F)F)c1ccc(O)cc1', 'melting point', '172 to 173 °C'),
  ('O=C(O)CCNC(=O)C(CS)Cc1ccccc1 (stereo not given)', 'melting point', '76 to 82 °C'),
  ('CCOC(=O)C1=C(COCC(N)=S)NC(C)=C(C(=O)OC)C1c1ccccc1Cl (stereo not given)', 'melting point', '149 to 150 °C'),
  ('O=C1Cc2c3c(cc4ccccc24)N(c2ccccc2)C(=O)CN13', 'melting point', '296 to 300 °C'),
  ('O=S(=O)(Nc1cccc(CCOCc2csc(-c3ccc(OC(F)(F)F)cc3)n2)c1)C(F)(F)F', 'melting point', '115 to 116 °C'),
  ('CC(O)Cn1c(COCc2ccccc2)nc(C(C)C)c1Sc1cc(Cl)cc(Cl)c1 (stereo not given)', 'melting point', '155 to 157 °C'),
  ('CCOC(=O)NN=C(CO)c1cccc(Cl)c1', 'melting point', '109 to 110 °C');

Now let's try a different one.
Q: Any idea what its melting point is? The compound is "CCCCNC(=O)n1sc(OCC)nc1=O"
Ans: 54 °C

----------
The entries below come with measured melting point values attached.

Before answering, review these 4 worked examples.
INSERT INTO results (compound, parameter_measured, result) VALUES
  ('COc1ccc(CNC(=NC#N)Nc2ccc(C3=NNC(=O)CC3C)cc2)cc1 (stereo not given)', 'melting point', '231 to 233 °C'),
  ('CCCn1c(=O)c2c(ncn2CC(O)CO)n(CCC)c1=O (stereo not given)', 'melting point', '88 to 91 °C'),
  ('O=C1CSCC(=O)C1C(=O)Nc1ccc(Cl)c(C(F)(F)F)c1', 'melting point', '108 to 110 °C'),
  ('Cc1ccncc1C(O)c1ccc2cc(CO)ccc2c1 (stereo not given)', 'melting point', '151 to 153 °C');

Now let's try a different one.
Q: Any idea what its melting point is? The compound is "Cc1nc2cc(C(=O)NC3CC3)c(NC(=O)c3cc(C(F)(F)F)nn3-c3ncccc3Cl)c(Cl)c2nc1C"
Ans: 255 to 258 °C

----------
The entries below come with measured melting point values attached.

Before answering, review these 5 worked examples.
INSERT INTO assay_data (compound, parameter_measured, result) VALUES
  ('COCCNS(=O)(=O)c1cccc(Nc2nccc(-c3sc(N)nc3C)n2)c1', 'melting point', '179 to 180 °C'),
  ('COc1nc2cc([N+](=O)[O-])c(C)c(C(=O)NCc3ccccc3)c2nc1OC', 'melting point', '171 to 173 °C'),
  ('CC(=O)c1c(NC(=O)c2ccc(C)cc2)cccc1C(F)(F)F', 'melting point', '171 °C'),
  ('C#CCn1nnnc1SC(c1ccccc1)c1ccccc1', 'melting point', '92 °C'),
  ('CC(C(=O)O)c1ccc2cc(OCC(=O)O)ccc2c1 (centres undefined)', 'melting point', '185 to 188 °C');

Now let's try a different one.
Q: Any idea what its melting point is? The compound is "CCOC(=O)c1sc(N)nc1C(C)C"
Ans: 174 to 178 °C

----------
The entries below come with measured melting point values attached.

Before answering, review these 9 worked examples.
INSERT INTO measurements (compound, result) VALUES
  ('Nc1ccccc1Sc1ccc([N+](=O)[O-])cc1[N+](=O)[O-]', '151 to 152 °C'),
  ('COc1ccc(C(=O)c2ccoc2)c(Cl)c1Cl', '118 to 122 °C'),
  ('CSCc1cc(O)nc(CSC)n1', '101 to 102 °C'),
  ('O=C(O)c1c(Cc2ccccc2)nc2c(C(F)(F)F)cccc2c1O', '252 °C'),
  ('O=C(Nc1cccc(-c2ccnc3c(C(=O)c4cccs4)cnn23)c1)NC1CCCCC1', '233 to 236 °C'),
  ('O=S(=O)(c1ccc(Cl)cc1)C(c1ccc(CO)cn1)c1cc(F)ccc1F (stereo not given)', '151 to 152 °C'),
  ('COc1ccccc1C(=O)c1c(SC)oc2ccccc2c1=O', '145 °C'),
  ('CCn1c(C(=O)c2cc(C)cc(C=CC#N)c2)c(C(C)C)c(=O)[nH]c1=O', '174 to 176 °C'),
  ('CC1(C)CCC(C)(C)c2cc(C(=O)C=Cc3ccc(C(=O)O)c(O)c3)ccc21', '260 to 261 °C');

Q: Any idea what its melting point is? The compound is "COc1cc(C(=O)N(C(C)C)C2CCCCC2)ccc1Cn1cnc2ncccc21"
Ans: 189 to 191 °C
